System: FGF-stimulated HUVEC
PROCEDURE_TEXT: FGF-stimulated HUVEC proliferation assay (BrdU)
Type: cell-based
CONDITION_DETAILS: Homo sapiens, FGF 5 ng per mL, BrdU ELISA, read-out: FGF-HUVEC (IC50, BrdU labeling)
pIC50: −log10 of the molar value. Where a name gives a salt, the structure may show the parent alone.

# MOLECULE, TESTED_TARGET, pIC50
records = [
    ("Nc1ncc(C(=O)NCCO)c2scc(COc3ccc(Br)cc3)c12", "FGF-stimulated HUVEC", 5.56),
    ("Nc1ncc(C(=O)NCCN2CCOCC2)c2scc(COc3ccc(Br)cc3)c12 [Example 13b, hydrochloride salt]", "FGF-stimulated HUVEC", 6.20),
]

----------
TESTED_TARGET: FGFR
Construct: fused on or other part: GST tag
PROCEDURE_TEXT: FGFR kinase HTRF assay
CONDITION_DETAILS: GST-tagged FGFR, 10 μM ATP
pIC50: −log10 of the molar value. Where a name gives a salt, the structure may show the parent alone.
MEASUREMENT_TYPE: pIC50

# COMPOUND, TESTED_TARGET, VALUE
data = [
    ("Nc1ncc(C(=O)NCCO)c2scc(COc3ccc(Br)cc3)c12", "FGFR", 7.14),
    ("Nc1ncc(C(=O)NCCN2CCOCC2)c2scc(COc3ccc(Br)cc3)c12 [Example 13b, hydrochloride salt]", "FGFR", 6.74),
]

----------
TESTED_TARGET: KDR (Homo sapiens)
Construct: EEE tag
Sequence (P35968 20-1356): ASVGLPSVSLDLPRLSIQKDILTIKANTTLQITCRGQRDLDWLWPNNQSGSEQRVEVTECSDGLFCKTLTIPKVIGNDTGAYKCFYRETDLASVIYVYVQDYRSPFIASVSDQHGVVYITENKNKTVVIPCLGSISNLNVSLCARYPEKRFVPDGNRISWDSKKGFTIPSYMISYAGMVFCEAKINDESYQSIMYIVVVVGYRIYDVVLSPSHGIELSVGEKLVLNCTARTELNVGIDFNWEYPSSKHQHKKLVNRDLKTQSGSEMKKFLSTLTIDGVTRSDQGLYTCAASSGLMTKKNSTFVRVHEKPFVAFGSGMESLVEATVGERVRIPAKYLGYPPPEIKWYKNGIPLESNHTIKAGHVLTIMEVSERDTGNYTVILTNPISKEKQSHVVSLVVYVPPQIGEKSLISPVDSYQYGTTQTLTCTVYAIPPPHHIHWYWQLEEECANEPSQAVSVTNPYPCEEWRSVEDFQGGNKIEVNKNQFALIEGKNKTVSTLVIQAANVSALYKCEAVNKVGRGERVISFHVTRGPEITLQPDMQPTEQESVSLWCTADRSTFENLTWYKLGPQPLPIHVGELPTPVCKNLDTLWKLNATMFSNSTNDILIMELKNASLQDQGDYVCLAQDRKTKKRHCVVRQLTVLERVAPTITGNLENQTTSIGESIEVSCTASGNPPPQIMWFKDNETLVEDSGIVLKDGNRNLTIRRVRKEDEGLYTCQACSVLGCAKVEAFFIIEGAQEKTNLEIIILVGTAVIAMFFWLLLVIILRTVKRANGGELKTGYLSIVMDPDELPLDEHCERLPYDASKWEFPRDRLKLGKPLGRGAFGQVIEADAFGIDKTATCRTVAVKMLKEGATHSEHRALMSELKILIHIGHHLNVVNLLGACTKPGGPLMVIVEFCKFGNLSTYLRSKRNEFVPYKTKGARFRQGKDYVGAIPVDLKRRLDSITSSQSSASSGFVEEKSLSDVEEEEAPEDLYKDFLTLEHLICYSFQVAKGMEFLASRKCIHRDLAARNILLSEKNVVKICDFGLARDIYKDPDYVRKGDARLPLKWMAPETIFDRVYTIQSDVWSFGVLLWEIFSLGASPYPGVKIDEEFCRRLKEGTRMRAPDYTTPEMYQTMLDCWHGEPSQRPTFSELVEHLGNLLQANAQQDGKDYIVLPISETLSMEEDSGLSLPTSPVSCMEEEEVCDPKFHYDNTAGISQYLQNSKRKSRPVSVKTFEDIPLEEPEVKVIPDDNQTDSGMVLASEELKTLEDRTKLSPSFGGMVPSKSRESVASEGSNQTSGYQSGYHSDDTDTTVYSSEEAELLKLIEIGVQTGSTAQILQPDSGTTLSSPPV
PROCEDURE_TEXT: KDR kinase HTRF assay
CONDITION_DETAILS: recombinant EEE-tagged KDR, 0.3 mM ATP
Structures can show the parent of a compound that is named as a salt.
compounds and their reported IC50
MEASUREMENT_TYPE: IC50 (nM)

# COMPOUND, VALUE
data = [
    ("Nc1ncc(C(=O)NCCO)c2scc(COc3ccc(Br)cc3)c12", 20),
    ("Nc1ncc(C(=O)NCCN2CCOCC2)c2scc(COc3ccc(Br)cc3)c12 [Example 13b, hydrochloride salt]", 58.4),
    ("COc1ccc(OCc2csc3c(C(=O)NCCO)cnc(N)c23)c(Cl)c1", 509),
]
